Recorded TGI by entry
- Test system: PC-3 prostate
- procedure-summary: NCI tumour cell line growth inhibition, 48 h

> print(dat)
                                   compound  measured.property  measurement
1  CN(C)c1ccc(/C=C2\N=C(c3ccccc3)N(c3nc4c(Cl)cc(Cl)cc4s3)C2=O)cc1                TGI     > 100 µM
2  COC(=O)CC1C2CC3C(C2=O)C13 (stereo not drawn)                TGI     > 100 µM

Proceed to the following item.
Asked: Look up TGI with PC-3 prostate for this compound: "Clc1ccc(OCc2nnc(CCCCCCCCc3nnc(COc4ccc(Cl)cc4Cl)o3)o2)c(Cl)c1"
Given back: > 100 µM

###

- System: SN12C renal
- procedure-summary: NCI tumour cell line growth inhibition, 48 h
Parameter TGI: see the listing below.

> print(dat)
                            molecule.smiles  measurement
1  CN(C)c1ccc(/C=N/NC2=N/C(=C\c3ccco3)C(=O)N2)cc1     > 100 µM

Asked: Which TGI value belongs to "O=C(O)C(Cc1cccs1)C(=O)O" ?
Given back: > 100 µM

Asked: Using the record for "CC1=C(C#N)S(=O)(=O)c2c(oc(C)c2C)N1" , report its TGI.
Given back: > 100 µM

Asked: Entry "c1c[nH]c(Cc2ncc(Cc3cnc[nH]3)[nH]2)n1" : reported TGI = ?
Given back: > 100 µM

Asked: Given the entry "COC(=O)/C=C1/OC(c2ccccc2)=C(Cl)C1=O" , report its measured TGI.
Given back: > 60.1 µM

Asked: Need TGI of "COc1cccc(-c2cc(=O)c3cc(C)cnc3[nH]2)c1" , thanks.
Given back: > 33.9 µM

###

- Tested on: OVCAR-5 ovarian
- procedure-summary: NCI tumour cell line growth inhibition, 48 h
# reported TGI; entries follow

> print(dat)
                                   molecule  measurement
1  CC(C)(C)N=CN1CCC(C(c2ccccc2)c2ccccc2)CC1     > 100 µM
2       O=S1(=O)c2ccccc2N2CCCc3cc(Cl)cc1c32     > 100 µM
3  CN(C)CCCOC(=O)C(O)(Cc1ccccc1)C1CC1 (stereo not given)     > 100 µM

Asked: Which value of TGI has been reported for O=C1CC(O)c2c(Cl)sc(Cl)c21 (stereo not given) in the records?
Given back: 33 µM

Asked: Look up TGI: "O=C1/C(=C\c2cccs2)Oc2ccccc21"
Given back: > 100 µM

Asked: If you can, please state the reported TGI value of "COc1ccc(N=C/C=C/Nc2ccc(OC)cc2)cc1" .
Given back: 29.6 µM

Asked: Query (molecule): "CC(=O)O[C@H]1/C(=C/c2ccc(N(C)C)cc2)C[C@H]2[C@@H]3CC=C4C[C@@H](N5CCCC5)CC[C@]4(C)[C@H]3CC[C@]12C" ; field requested: TGI
Given back: > 100 µM

Asked: Look at this molecule and give its reported TGI. "COC(=O)c1ccc2c(c1)c1c(C)c3cnccc3c(C)c1n2C"
Given back: 1.26 µM

Asked: Entry "O=C(O)C(Cc1cccs1)C(=O)O" has what TGI?
Given back: > 100 µM

Asked: Could you share which TGI value was measured for "c1cc2c(cnc3cscc32)s1" ?
Given back: > 100 µM
